- System: MX-1 breast xenograft, nude mice, tumor weight T/C
- method: NCI In Vivo Anticancer Drug Screen. Data for tumor model Human Mammary Carcinoma MX-1 Xenograft (intrarenal inoculation) in NU/NU Swiss (nude) mice
- experimental-setup: endpoint: mean tumor weight change; dose: 18.75 mg/kg/injection; schedule: Q04DX003 (sc); vehicle: saline with Tween-80; higher = larger tumour
Inconclusive results are not listed.
readout-type: T/C

* CC1c2ccccc2CC(CCN(C)C)c2ccccc21 (configuration not stated) | 83 % of control
* Cc1cc(NCCCN(C)C)c2ccc3c(ccc4c(NCCCN(C)C)cc(C)nc43)c2n1 | 65 % of control
* C=C1C(=O)O[C@@H]2[C@H](O)[C@@H](C)[C@@H]3C=CC(=O)[C@@]3(C)[C@H](OC(=O)C=C(C)C)[C@H]12 | 105 % of control
* CCC1CCCCN1C(=S)N/N=C(\C)c1ccccn1 (configuration not stated) | 53 % of control
* Nc1nc(N)c2c(Cl)c(CNc3ccc(Cl)c(Cl)c3)ccc2n1 | 80 % of control
* COC(=O)C(F)C(Br)C(=O)OC (configuration not stated) | 52 % of control
* CCC[P+](c1ccccc1)(c1ccccc1)c1ccccc1 | 100 % of control

====

- System: MX-1 breast xenograft, nude mice, tumor weight T/C
- method: NCI In Vivo Anticancer Drug Screen. Data for tumor model Human Mammary Carcinoma MX-1 Xenograft (intrarenal inoculation) in NU/NU Swiss (nude) mice
- experimental-setup: endpoint: mean tumor weight change; dose: 25.0 mg/kg/injection; schedule: Q04DX003 (sc); vehicle: saline; higher = larger tumour
- Method: The antitumor activity of compounds was measured in mice bearing transplantable tumors. Survival or tumor size were measured and the results are expressed as the measurement made in the treated group (T) divided by the measurement made in the vehicle treated control group (C). The tumor model used in this assay is Human Mammary Carcinoma MX-1 Xenograft (intrarenal inoculation) in NU/NU Swiss (nude) mice
Inconclusive results are not listed.
compounds and their reported T/C
readout-type: T/C

* NC1=NCN(C2OC(CO)C(O)C2O)C(=O)N1 (centres undefined) | 34 % of control
* ClCC[Se](Cl)(Cl)c1ccccc1 | 109 % of control
* C1CN(P2(N3CC3)=NP(N3CC3)(N3CC3)=NP(N3CC3)(N3CC3)=N2)CCO1 (centres undefined) | 9 % of control
* Cc1c(N)nc([C@H](CC(N)=O)NC[C@H](N)C(N)=O)nc1C(=O)N[C@H](C(=O)N[C@H](C)[C@@H](O)[C@H](C)C(=O)N[C@H](C(=O)NCCc1nc(-c2nc(C(=O)NCCC[S+](C)C)cs2)cs1)[C@@H](C)O)C(OC1OC(CO)C(O)C(O)C1OC1OC(CO)C(O)C(OC(N)=O)C1O)c1cnc[nH]1 (some centres undefined) | 50 % of control

====

compounds and their reported T/C
- Tested on: MX-1 breast xenograft, nude mice, tumor weight T/C
- method: NCI In Vivo Anticancer Drug Screen. Data for tumor model Human Mammary Carcinoma MX-1 Xenograft (intrarenal inoculation) in NU/NU Swiss (nude) mice
- experimental-setup: endpoint: mean tumor weight change; dose: 2400.0 mg/kg/injection; schedule: Q04DX003 (sc); vehicle: Klucel (hydroxypropylcellulose) (HPC); higher = larger tumour
Records with an inconclusive call do not appear.
readout-type: T/C

- COC1C(O)C(C)OC(OC2C(Oc3cccc4c(O)c5c(=O)oc6ccc(C)c7c(=O)oc(c34)c5c67)OC(C)C(O)C2O)C1O (stereo not given): 49 % of control
- O=c1ssc(=Nc2ccccc2)n1-c1ccccc1: 106 % of control
- O=C(CC(=O)C(F)(F)F)c1csc2ccccc12: 99 % of control
- CC1=CC(=Nc2ccc(N(CCCl)CCCl)cc2)C=C(C)C1=O: -89 % of control
- N#CCCN(C(=S)Nc1cccc(C(F)(F)F)c1)C1CCCCC1: 106 % of control

====

- Tested on: MX-1 breast xenograft, nude mice, tumor weight T/C
- method: NCI In Vivo Anticancer Drug Screen. Data for tumor model Human Mammary Carcinoma MX-1 Xenograft (intrarenal inoculation) in NU/NU Swiss (nude) mice
- experimental-setup: endpoint: mean tumor weight change; dose: 32.0 mg/kg/injection; schedule: Q04DX003 (sc); vehicle: saline; higher = larger tumour
Inconclusive results are not listed.
compounds and their reported T/C
readout-type: T/C

• CC[C@](O)(C(=O)O)c1cc2n(c(=O)c1CO)Cc1cc3ccccc3nc1-2 = -89 % of control
• CC[C@@]1(O)C(=O)OCc2c1cc1n(c2=O)Cc2cc3cc(O)ccc3nc2-1 = -100 % of control
• N[C@H](C(=O)O)[C@@H]1CC(Cl)=NO1 = 5 % of control
• Cc1c(N)nc([C@H](CC(N)=O)NC[C@H](N)C(N)=O)nc1C(=O)N[C@H](C(=O)N[C@H](C)[C@@H](O)[C@H](C)C(=O)N[C@H](C(=O)NCCc1nc(-c2nc(C(=O)NCCC[S+](C)C)cs2)cs1)[C@@H](C)O)C(OC1OC(CO)C(O)C(O)C1OC1OC(CO)C(O)C(OC(N)=O)C1O)c1cnc[nH]1 (stereo not given in full) = 15 % of control
• Cc1c(N)nc([C@H](CC(N)=O)NC[C@H](N)C(N)=O)nc1C(=O)N[C@H](C(=O)N[C@H](C)[C@@H](O)CC(=O)N[C@H](C(=O)NC(O[C@@H]1O[C@@H](C)[C@@H](N)[C@@H](O)[C@H]1O)C(O)c1nc(-c2nc(C(=O)NCCCCN)cs2)cs1)[C@@H](C)O)[C@@H](O[C@@H]1O[C@@H](CO)[C@@H](O)[C@H](O)[C@@H]1O[C@H]1O[C@H](CO)[C@@H](O)[C@H](OC(N)=O)[C@@H]1O)c1c[nH]cn1 (stereo not given in full) = 47 % of control

====

- Tested on: MX-1 breast xenograft, nude mice, tumor weight T/C
- method: NCI In Vivo Anticancer Drug Screen. Data for tumor model Human Mammary Carcinoma MX-1 Xenograft (intrarenal inoculation) in NU/NU Swiss (nude) mice
- experimental-setup: endpoint: mean tumor weight change; dose: 16.0 mg/kg/injection; schedule: Q01DX010 (sc); vehicle: saline; higher = larger tumour
- Experimental: The antitumor activity of compounds was measured in mice bearing transplantable tumors. Survival or tumor size were measured and the results are expressed as the measurement made in the treated group (T) divided by the measurement made in the vehicle treated control group (C). The tumor model used in this assay is Human Mammary Carcinoma MX-1 Xenograft (intrarenal inoculation) in NU/NU Swiss (nude) mice
Inconclusive results are not listed.
compounds and their reported T/C
readout-type: T/C

• Cc1c(N)nc(C(CC(N)=O)NCC(N)C(N)=O)nc1C(=O)NC(C(=O)NC(C)C(O)C(C)C(=O)NC(C(=O)NCCc1nc(-c2nc(C(=O)NCCCNC(C)c3ccccc3)cs2)cs1)C(C)O)C(OC1OC(CO)C(O)C(O)C1OC1OC(CO)C(O)C(OC(N)=O)C1O)c1cnc[nH]1 (stereo not given) = 89 % of control
• COc1cc([C@@H]2c3cc4c(cc3[C@@H](OC3OC5COC(C)OC5C(O)C3O)[C@H]3COC(=O)[C@H]23)OCO4)cc(OC)c1O (stereo not given in full) = 72 % of control
• COc1cc([C@@H]2c3cc4c(cc3[C@@H](OC3OC5CO[C@@H](c6cccs6)OC5C(O)C3O)[C@H]3COC(=O)[C@H]23)OCO4)cc(OC)c1O (stereo not given in full) = 60 % of control
• CC1=C(C)C(=O)O[C@@H]([C@](C)(O)[C@]2(O)CC[C@@]3(O)[C@@H]4C[C@H]5O[C@]56[C@@H](O)C=CC(=O)[C@]6(C)[C@H]4CC[C@]23C)C1 = 155 % of control
• CCCCNCCCNCCCNC(=O)c1csc(-c2csc(CCNC(=O)C(NC(=O)C(C)C(O)C(C)NC(=O)C(NC(=O)c3nc(C(CC(N)=O)NCC(N)C(N)=O)nc(N)c3C)C(OC3OC(CO)C(O)C(O)C3OC3OC(CO)C(O)C(OC(N)=O)C3O)c3cnc[nH]3)C(C)O)n2)n1 (stereo not given) = 73 % of control

====

- Test system: MX-1 breast xenograft, nude mice, tumor weight T/C
- method: NCI In Vivo Anticancer Drug Screen. Data for tumor model Human Mammary Carcinoma MX-1 Xenograft (intrarenal inoculation) in NU/NU Swiss (nude) mice
- experimental-setup: endpoint: mean tumor weight change; dose: 2400.0 mg/kg/injection; schedule: Q04DX003 (sc); vehicle: Klucel (hydroxypropylcellulose) (HPC); higher = larger tumour
Results filed as inconclusive are left out.
readout-type: T/C

* C[C@]12C=CC(=O)C=C1CC[C@@H]1[C@@H]2C(=O)C[C@@]2(C)[C@H]1CC[C@]2(O)C(=O)CO | 29 % of control
* O=c1[nH]c(=O)n(C2CC(O)C(CO)O2)cc1Br (configuration not stated) | 59 % of control
* CCC(=O)O[C@H]1CC[C@H]2[C@@H]3CCC4=CC(=O)CC[C@]4(C)[C@H]3CC[C@]12C | 115 % of control
* OC1CCCC2CCC[N-]C12.OC1CCCC2CCC[N-]C12.[Mn+2] (configuration not stated) | 73 % of control
* COc1ccc2c(ccc3oc([N+](=O)[O-])cc32)c1 | 36 % of control
* Oc1c(Cl)cc(Cl)cc1C1N2CCCCC2C2c3cccn3-c3ccccc3N21 (configuration not stated) | 82 % of control
* [O-][n+]1c(CN2CCCCC2)nc2cccc3c2c1-c1ccccc1-3 | 70 % of control
